system: Raji; assay: Percent viability of Raji cells at concentration of 1000 mol ratio / 20 ng/mL TPA; type: functional, Homo sapiens
METRIC_NAME: Viability

See these solved cases before continuing.
>  <COMPOUND>
CC1(C)C(=O)C(C(=O)/C=C/c2ccccc2)=C(O)C(C)(C)C1=O

>  <Viability>
70%

$$$$
>  <COMPOUND>
CC1=C(O)C(C)(C)C(O)=C(C(=O)/C=C/c2ccccc2)C1O (stereo unspecified)

>  <Viability>
70%

$$$$
>  <COMPOUND>
COC1=C(C)C(O)=C(C(=O)/C=C/c2ccccc2)C(=O)C1(C)C [DESMOSDUMOTIN C]

>  <Viability>
70%

$$$$

Specify Viability for "CC(=O)C1=C(O)C(C)(C)C(O)=CC1=O" and stop.
60%

Specify Viability for "CC(=O)C1=C(O)C(C)(C)C(=O)C(C)(C)C1=O" and stop.
60%

Specify Viability for "CC(=O)C1=C(O)C(C)(C)C(O)=C(C(C)=O)C1=O" and stop.
60%

Specify Viability for "COC1=C(C)C(=O)c2c(oc(-c3ccccc3)cc2=O)C1(C)C" and stop.
70%

Specify Viability for CC1=C(O)C(C)(C)c2oc(-c3ccccc3)cc(=O)c2C1=O [DESMOTUMOTIN B] and stop.
70%

###

test system: Raji; test: Percent viability of Raji cells at concentration of 1000 mol ratio / 20 ng/mL TPA; type: functional, Homo sapiens
METRIC_NAME: Viability

>  <MOLECULE>
CC(=O)c1c(O)cc(O)c(C(C)=O)c1O

>  <REPORTED>
60%

$$$$
>  <MOLECULE>
CC1=C(O)C(C)(C)C2=C(C(=O)CC(c3ccccc3)O2)C1=O (stereo not drawn)

>  <REPORTED>
70%

$$$$

Shift focus to the following entry.
Specify Viability for "CC(=O)C1=C(O)C(C)=C(O)C(C)(C)C1=O" and stop.
60%

The reported measurements were obtained from ChEMBL document CHEMBL1139617.
